Test system: Fibroblast
Experiment: Multiplex assay against human fibroblast
Type: toxicity, cell-based
Conditions: 12 h, 1 µM, compound concentration 1 uM, replicate 1
Label rule, in plain words: Population Healthy Nuclei (%) of 50% and up is 1, under 50% is 0.

| compound | category.label |
| --- | --- |
| Cn1cc(-c2[nH]c3cc(NC(=O)[C@H](N)C4CCCCC4)cc4c3c2C=NNC4=O)cn1 | 0 |
| O=C1NCN(c2ccccc2)C12CCN(CCCOc1ccc(F)cc1)CC2 [SPIRAMIDE] | 0 |
| NC(=O)Nc1cc(-c2cccc(F)c2)sc1C(=O)N[C@H]1CCCNC1 | 1 |

Shift focus to the following entry.
Tell me whether Population Healthy Nuclei (%) is at least 50% here: `Cc1cc(C)cc(-c2cnc3cc(Cl)c(-c4cccc(O)c4)cc3c2OCCCN)c1`
0

---

Test system: Fibroblast
Test: Multiplex assay against human fibroblast
Assay type: toxicity, cell-based
Settings: 48 h, 10 µM, compound concentration 10 uM, replicate 2
observed.property: Population Hoechst High Intensity Objects (%)
Numbers only, in %.

In the examples that follow, each entry is paired with its recorded Population Hoechst High Intensity Objects (%).
| compound | tested.system | units.symbol | result |
| --- | --- | --- | --- |
| C[C@@H](NCCCc1cccc(C(F)(F)F)c1)c1cccc2ccccc12.Cl [CINACALCET HYDROCHLORIDE] | Fibroblast | % | 23 |
| Cn1cc(-c2[nH]c3cc(NC(=O)[C@H](N)C4CCCCC4)cc4c3c2C=NNC4=O)cn1 | Fibroblast | % | 32 |
| Cc1csc2c(N[C@@H](C)CN3CCN(S(=O)(=O)c4ccc(Cl)c(Cl)c4)CC3)ncnc12 | Fibroblast | % | 25 |

Batch: Population Hoechst High Intensity Objects (%) for all items listed.
1. CC[C@H](C)C(=O)O[C@H]1C[C@@H](C)C=C2C=C[C@H](C)[C@H](CC[C@@H]3C[C@@H](O)CC(=O)O3)[C@H]21 [LOVASTATIN]
2. Cc1[nH]c(/C=C2\C(=O)Nc3ccc(S(=O)(=O)N(C)c4cccc(Cl)c4)cc32)c(C)c1C(=O)N1CCN(C)CC1
3. CC(C)(O)CNc1ncc(-c2ccnc(Nc3ccnc(Cl)c3)n2)c(CC2CC2)n1

15
8
9

Please supply Population Hoechst High Intensity Objects (%) for each of the following items, keeping them in order.
1. CN(C)C(=O)N[C@H]1CC[C@H](CCN2CCN(c3cccc(Cl)c3Cl)CC2)CC1.Cl [CARIPRAZINE HYDROCHLORIDE]
2. CNc1nc(NCc2ccc(NS(C)(=O)=O)cc2Cl)cc(-c2ccccn2)n1

1: 32; 2: 41

---

Test system: HEK-293T
Assay: Multiplex assay against HEK293T
Type: toxicity, cell-based
Settings: human, 48 h, 10 µM, compound concentration 10 uM, replicate 1
Entry flag: Criterion met if Population Pyknosed Nuclei (%) reaches 60%; Criterion not met if it does not.

Here are 5 molecules together with their reported answers.
| molecule | tested.system | category.label |
| --- | --- | --- |
| COc1cc(-n2cnc3cc(-c4ccc(Cl)cc4)sc3c2=O)ccc1OCCN1CCCC1 | HEK-293T | Criterion not met |
| Cl.N#Cc1ccc2[nH]cc(CCCCN3CCN(c4ccc5oc(C(N)=O)cc5c4)CC3)c2c1 [VILAZODONE HYDROCHLORIDE] | HEK-293T | Criterion met |
| CC(C)(O)CNc1ncc(-c2ccnc(Nc3ccnc(Cl)c3)n2)c(CC2CC2)n1 | HEK-293T | Criterion met |
| CCn1c(=O)c(-c2ccc(Cl)cc2Cl)cc2cnc(Nc3ccc(N4CCNCC4)c(F)c3)nc21 | HEK-293T | Criterion not met |
| COc1cc2nccc(Oc3ccc(NC(=O)Nc4cc(C)on4)c(Cl)c3)c2cc1OC.O | HEK-293T | Criterion not met |

Does the molecule CN(C)CC#Cc1ccc(OCCCc2sc(N3CCc4cccc(C(=O)Nc5nc6ccccc6s5)c4C3)nc2C(=O)O)c(F)c1 [A-1155463] have recorded Population Pyknosed Nuclei (%) that is 60% or more?
Criterion not met

---

What Population Mitotic Cells (%) was measured for each of the following?
Test system: Fibroblast
Test: Multiplex assay against human fibroblast
Assay type: toxicity, cell-based
Settings: 12 h, 10 µM, compound concentration 10 uM, replicate 1
Numbers only, in %.

Examples with their reported Population Mitotic Cells (%) follow.
| compound | units.symbol | Population Mitotic Cells (%) |
| --- | --- | --- |
| O=C1NCN(c2ccccc2)C12CCN(CCCOc1ccc(F)cc1)CC2 [SPIRAMIDE] | % | 33 |
| CN(C)C(=O)N[C@H]1CC[C@H](CCN2CCN(c3cccc(Cl)c3Cl)CC2)CC1.Cl [CARIPRAZINE HYDROCHLORIDE] | % | 28 |
| CNc1nc(NCc2ccc(NS(C)(=O)=O)cc2Cl)cc(-c2ccccn2)n1 | % | 39 |

Turning now to a further compound:
Which Population Mitotic Cells (%) reading was recorded for the compound `CCN(CC)CCCCNc1ncc2cc(-c3cc(OC)cc(OC)c3)c(NC(=O)NC(C)(C)C)nc2n1` ?
39

---

Please go through the items and note down their Population Apoptotic (%).
Test system: Fibroblast
Assay: Multiplex assay against human fibroblast
Type: toxicity, cell-based
Settings: 24 h, 1 µM, compound concentration 1 uM, replicate 1
The number alone won't do; follow it with the unit.

| compound | tested.system | result |
| --- | --- | --- |
| Cl.N#Cc1ccc2[nH]cc(CCCCN3CCN(c4ccc5oc(C(N)=O)cc5c4)CC3)c2c1 [VILAZODONE HYDROCHLORIDE] | Fibroblast | 63% |
| CC(C)(O)CNc1ncc(-c2ccnc(Nc3ccnc(Cl)c3)n2)c(CC2CC2)n1 | Fibroblast | 53% |
| C=CC(=O)Nc1ccc2ncnc(Nc3ccc(OCc4cccc(F)c4)c(Cl)c3)c2c1.Cc1ccc(S(=O)(=O)O)cc1 | Fibroblast | 65% |
| COc1ncc(-c2ccc3nccc(-c4ccnnc4)c3c2)cc1NS(=O)(=O)c1ccc(F)cc1F | Fibroblast | 58% |
| CC(C)NCC(O)COc1ccc(CCOCC2CC2)cc1.Cl (stereo not drawn) [BETAXOLOL HYDROCHLORIDE] | Fibroblast | 30% |
| CC[C@H](C)C(=O)O[C@H]1C[C@@H](C)C=C2C=C[C@H](C)[C@H](CC[C@@H]3C[C@@H](O)CC(=O)O3)[C@H]21 | Fibroblast | 44% |

Each compound below has a reported value. Please supply its Population Apoptotic (%).
1. COc1cccc([C@@H](C)NCCCc2ccccc2Cl)c1.Cl [TECALCET HYDROCHLORIDE]
2. CNc1nc(NCc2ccc(NS(C)(=O)=O)cc2Cl)cc(-c2ccccn2)n1

["56%", "70%"]

---

Tested on: U2OS
Assay: Multiplex assay against U2OS
Type: toxicity, cell-based
Settings: human, 24 h, 1 µM, compound concentration 1 uM, replicate 1
observed.property: Population Tubulin-Different-Phenotype (%)
One number for each entry, in %.

Some entries whose results are on file:
| compound | result |
| --- | --- |
| c1cn2cc(-c3ccc4cn[nH]c4c3)nc(Nc3ccc(N4CCOCC4)cc3)c2n1 [ENTOSPLETINIB] | 24 |
| Cc1nc(Nc2n[nH]c3c2CN(C(=O)N[C@H](CN(C)C)c2ccccc2)C3(C)C)c2sccc2n1 [PF-03758309] | 25 |
| COc1cccc([C@@H](C)NCCCc2ccccc2Cl)c1.Cl [TECALCET HYDROCHLORIDE] | 19 |
| Cc1nc(-c2ccc(-c3ccc(C(=O)N4CCc5cc6c(cc54)C4(CCN(C)CC4)CO6)cc3)c(C)c2)no1 [SB-224289] | 25 |
| CN(C)CC#Cc1ccc(OCCCc2sc(N3CCc4cccc(C(=O)Nc5nc6ccccc6s5)c4C3)nc2C(=O)O)c(F)c1 [A-1155463] | 6 |
| CN(C)C(=O)/C(C#N)=C/c1ccc(-c2nc3cnc4[nH]ccc4c3n2C2CCCCC2)o1 | 6 |
| CC(C)NCC(O)COc1ccc(CCOCC2CC2)cc1.Cl (stereo not drawn) [BETAXOLOL HYDROCHLORIDE] | 8 |

Give recorded Population Tubulin-Different-Phenotype (%) with U2OS for the following compound: `C=CC(=O)Nc1cccc(C(=O)Nc2ccc(Nc3cc(-c4[nH]c(SC)nc4C)ccn3)cc2)c1`
18

---

System: Fibroblast
Experiment: Multiplex assay against human fibroblast
Format: toxicity, cell-based
Conditions: 12 h, 1 µM, compound concentration 1 uM, replicate 1
API: label(entry) gives class 1 if the entry's Population Hoechst High Intensity Objects (%) is strictly smaller than 10%; on equality or larger values it gives class 0.

| compound | category.label |
| --- | --- |
| CNc1nc(NCc2ccc(NS(C)(=O)=O)cc2Cl)cc(-c2ccccn2)n1 | class 1 |

Confirm or reject: Population Hoechst High Intensity Objects (%) of `OC1(c2ccc(Cl)cc2)CCN(Cc2c[nH]c3ccccc23)CC1` lies strictly below 10%
class 0

For CCN(CC)CCCCNc1ncc2cc(-c3cc(OC)cc(OC)c3)c(NC(=O)NC(C)(C)C)nc2n1 [PD-173074] , is the recorded Population Hoechst High Intensity Objects (%) below the cut-off of 10%?
class 0

# TODO verify Population Hoechst High Intensity Objects (%) < 10% strictly for this compound: Cc1nc(-c2ccc(-c3ccc(C(=O)N4CCc5cc6c(cc54)C4(CCN(C)CC4)CO6)cc3)c(C)c2)no1 [SB-224289]
class 1

# strict comparison: is reported Population Hoechst High Intensity Objects (%) < 10%? input = C[C@@H](NCCCc1cccc(C(F)(F)F)c1)c1cccc2ccccc12.Cl [CINACALCET HYDROCHLORIDE]
class 0

Is Population Hoechst High Intensity Objects (%) strictly under 10% for the entry CN1CCN(c2ccc(OC(F)(F)F)c(Nc3ncc4c(n3)-c3c(c(C(N)=O)nn3CCO)CC4)c2)CC1 [ONVANSERTIB] ?
class 0

In the record for Cc1nc(Nc2n[nH]c3c2CN(C(=O)N[C@H](CN(C)C)c2ccccc2)C3(C)C)c2sccc2n1 [PF-03758309] , is Population Hoechst High Intensity Objects (%) less than 10%?
class 0

Just wondering, is Population Hoechst High Intensity Objects (%) of CN1CCC[C@@H]1CCO[C@](C)(c1ccccc1)c1ccc(Cl)cc1.O=C(O)/C=C/C(=O)O [CLEMASTINE FUMARATE] below 10%?
class 0

Could you please tell me whether Population Hoechst High Intensity Objects (%) recorded for CN1CCCC(n2nc(Cc3ccc(Cl)cc3)c3ccccc3c2=O)CC1.Cl (configuration not stated) [AZELASTINE HYDROCHLORIDE] is less than 10%?
class 0

Could you please tell me whether Population Hoechst High Intensity Objects (%) recorded for CN(C)CC#Cc1ccc(OCCCc2sc(N3CCc4cccc(C(=O)Nc5nc6ccccc6s5)c4C3)nc2C(=O)O)c(F)c1 [A-1155463] is less than 10%?
class 0

Strictly below 10%: is that where Population Hoechst High Intensity Objects (%) of O=C1NCN(c2ccccc2)C12CCN(CCCOc1ccc(F)cc1)CC2 [SPIRAMIDE] sits?
class 0

Given C=CC(=O)Nc1cc2c(Nc3ccc(F)c(Cl)c3)ncnc2cc1OCCCN1CCOCC1.Cl.Cl [CANERTINIB DIHYDROCHLORIDE] , is recorded Population Hoechst High Intensity Objects (%) strictly lower than 10%?
class 0

For `C=CC(=O)Nc1cccc(C(=O)Nc2ccc(Nc3cc(-c4[nH]c(SC)nc4C)ccn3)cc2)c1` , is the recorded Population Hoechst High Intensity Objects (%) below the cut-off of 10%?
class 0

hey, is Population Hoechst High Intensity Objects (%) for COc1ncc(-c2ccc3nccc(-c4ccnnc4)c3c2)cc1NS(=O)(=O)c1ccc(F)cc1F [OMIPALISIB] lower than 10% or not?
class 0

Answer whether the compound `C=CC(=O)Nc1ccc2ncnc(Nc3ccc(OCc4cccc(F)c4)c(Cl)c3)c2c1.Cc1ccc(S(=O)(=O)O)cc1` has Population Hoechst High Intensity Objects (%) strictly less than 10%
class 1

Hello, I'm reviewing records and need to know if Population Hoechst High Intensity Objects (%) of NC(=O)Nc1cc(-c2cccc(F)c2)sc1C(=O)N[C@H]1CCCNC1 [AZD-7762] is below 10%. Could you check?
class 0
